Test system: 377384-186-R-J1-PDC complex spheroid viability;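 further: spheroids exposed to compounds for seven days before readout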
PROCEDURE_DETAILS: Anticancer human tumor 377384-186-R-J1-PDC patient-derived pancreatic carcinoma cell line growth inhibition [RAS]
CONDITIONS_USED: curve of first compound; second compound 0.00949 µM
Below, each entry is listed alongside its reported IC50.

COMPOUND	RELATION_SYMBOL	IC50, nM
CCN1CCN(Cc2ccc(Nc3ncc(F)c(-c4cc(F)c5nc(C)n(C(C)C)c5c4)n3)nc2)CC1 + CCn1c(-c2cccnc2C(C)OC)c2c3cc(ccc31)N1CCOC(CC(NC(=O)C(C(C)C)N(C)C(=O)C3(F)CCN(C(=O)C#CC(C)(C)N(C)C)CC3)C(=O)N3CCCC(N3)C(=O)OCC(C)(C)C2)C1	=	257
C=CC(=O)N1CCN(c2nc(OCC3CCCN3C)nc3c(F)c(-c4nc(N)cc(C)c4C(F)(F)F)c(Cl)cc23)C(C)C1 (centres undefined) + CCn1c(-c2cc(N3CCN(C)CC3)cnc2C(C)OC)c2c3cc(ccc31)-c1csc(n1)CC(NC(=O)C1CC1C)C(=O)N1CCCC(N1)C(=O)OCC(C)(C)C2	<	3.16
CC1(C)CCC(Nc2ncc(C(F)(F)F)c(-c3c[nH]c4c(P(C)(C)=O)c(C#N)ccc34)n2)CN1 (centres undefined) + CCn1c(-c2cccnc2C(C)OC)c2c3cc(ccc31)N1CCOC(CC(NC(=O)C(C(C)C)N(C)C(=O)C3(F)CCN(C(=O)C#CC(C)(C)N(C)C)CC3)C(=O)N3CCCC(N3)C(=O)OCC(C)(C)C2)C1	=	6.25
CC1(O)CCCC1n1c(=O)c(C(F)F)cc2cnc(NC3CCN(S(C)(=O)=O)CC3)nc21 (centres undefined) + CCn1c(-c2cccnc2C(C)OC)c2c3cc(ccc31)N1CCOC(CC(NC(=O)C(C(C)C)N(C)C(=O)C3(F)CCN(C(=O)C#CC(C)(C)N(C)C)CC3)C(=O)N3CCCC(N3)C(=O)OCC(C)(C)C2)C1	=	122

Source: PubChem BioAssay AID2060903
